Value source: the supplement of paper PMC3545927

biological target: furin, P09958; test: furin cleavage Z-score vs untreated control; higher = more cleavage, active = 3.5 or more, inactive = 1 or less, 8 variable residues between constant flanks; conditions: 7.5 min;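 further: purified furin at 1:10 enzyme:substrate in 50 mM HEPES pH 7.5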
Sequence (P09958 whole entry): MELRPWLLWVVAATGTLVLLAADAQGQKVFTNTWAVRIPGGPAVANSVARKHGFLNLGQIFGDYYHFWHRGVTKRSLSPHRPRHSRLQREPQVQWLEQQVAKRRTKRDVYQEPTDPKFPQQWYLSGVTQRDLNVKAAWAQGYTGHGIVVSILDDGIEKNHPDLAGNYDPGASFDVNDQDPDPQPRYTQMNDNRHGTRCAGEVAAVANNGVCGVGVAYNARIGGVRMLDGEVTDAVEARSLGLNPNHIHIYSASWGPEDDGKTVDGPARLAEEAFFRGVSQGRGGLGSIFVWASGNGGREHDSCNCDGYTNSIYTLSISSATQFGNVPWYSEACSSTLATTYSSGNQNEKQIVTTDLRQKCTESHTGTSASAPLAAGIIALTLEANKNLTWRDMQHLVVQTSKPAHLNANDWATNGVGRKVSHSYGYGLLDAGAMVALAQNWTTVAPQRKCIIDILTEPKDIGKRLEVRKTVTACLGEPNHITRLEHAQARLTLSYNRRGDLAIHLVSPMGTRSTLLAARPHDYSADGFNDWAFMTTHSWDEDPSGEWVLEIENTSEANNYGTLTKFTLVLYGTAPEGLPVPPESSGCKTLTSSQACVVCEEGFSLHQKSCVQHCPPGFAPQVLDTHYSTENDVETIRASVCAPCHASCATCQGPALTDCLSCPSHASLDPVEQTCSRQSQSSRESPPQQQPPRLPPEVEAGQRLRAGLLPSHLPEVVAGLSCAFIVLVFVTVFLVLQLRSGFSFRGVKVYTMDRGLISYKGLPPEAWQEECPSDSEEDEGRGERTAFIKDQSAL
The list shows a part of the results. The hit rate among all sequences tested is not known here.
Decision: furin cleavage Z-score compared against -0.7; not below it gives 1.0, below it gives 0.0.

Worked cases, answers included:
INPUT: Form field: furin cleavage Z-score at least -0.7? Entry: CAVVDCSMSYAGNASASA [HC2031]
OUTPUT: 0.0

INPUT: Is the recorded value of furin cleavage Z-score equal to or greater than -0.7 for this sequence? CAVCSCLWMMAGNASASA [HC526]
OUTPUT: 1.0

INPUT: Could you verify whether the entry CATTPCSGSPAGNASASA [HC1939] shows furin cleavage Z-score of no less than -0.7?
OUTPUT: 1.0

New cases:
INPUT: Check this sequence for furin cleavage Z-score at or above -0.7: CASSTSGITGAGNASASA [HC1338]
OUTPUT: 1.0

INPUT: // inclusive: furin cleavage Z-score at least -0.7? input: CAYLEVVTSTAGNASASA [HC2269]
OUTPUT: 1.0

INPUT: Hi, just wondering whether CAGADTAACGAGNASASA [HC654] shows furin cleavage Z-score of -0.7 or higher.
OUTPUT: 0.0

INPUT: Determine whether measured furin cleavage Z-score meets or exceeds -0.7 for CATTPCSTSWAGNASASA [HC1898]
OUTPUT: 1.0
